System: 439559-082-T-J2-PDC spheroid viability;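 note: spheroids exposed to compounds for seven days before readout; 100% = DMSO vehicle control viability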
procedureSummary: Anticancer human tumor 439559-082-T-J2-PDC patient-derived colon adenocarcinoma cell line growth inhibition [POLQ]
assayContext: second compound 0.0316 µM; first compound 1 µM; stronger effect = lower value; spheroids with HUVEC and MSC
Would you kindly list viability, T/C for each of these compounds?
// return numeric value only (unit: %, not printed)

What value of viability, T/C has been recorded for this entry: CC1COCCN1c1cc(C2(S(C)(=N)=O)CC2)nc(-c2ccnc3[nH]ccc23)n1 (stereo unspecified) + Cc1cccc(N(C)C(=O)C2C(O)CCN2c2nc(C)cc(C(F)(F)F)c2C#N)c1 92.4

Quick one: CNCc1ccc(-c2[nH]c3cc(F)cc4c3c2CCNC4=O)cc1 + Nc1ccc(C#CCN(C(=O)Cc2ncc(C(F)(F)F)cc2C(F)(F)F)c2ccc(F)cc2)nn1 87.2

Quick one: O=C(Nc1ccc(O)c(NS(=O)(=O)c2ccc(F)cc2)c1)c1ccc(-c2ccccc2)cc1 + Cc1cccc(N(C)C(=O)C2C(O)CCN2c2nc(C)cc(C(F)(F)F)c2C#N)c1 97.3

Quick one: CCc1cc2c(N3CCc4c(cc(Cn5ccnc5)cc4-c4cn(C)nc4C(F)(F)F)C3=O)cc(C)nc2c(OC)n1 + Cc1cccc(N(C)C(=O)C2C(O)CCN2c2nc(C)cc(C(F)(F)F)c2C#N)c1 98.3

Quick one: COc1cccc(OCCCN)c1-c1cc(Nc2cnc(C#N)cn2)n[nH]1 + Nc1ccc(C#CCN(C(=O)Cc2ncc(C(F)(F)F)cc2C(F)(F)F)c2ccc(F)cc2)nn1 23.1

Quick one: O=c1[nH]cc(F)c(=O)[nH]1 + COC1C(OC(N)=O)C(O)C(Oc2ccc3c(O)c(NC(=O)c4ccc(O)c(CC=C(C)C)c4)c(=O)oc3c2C)OC1(C)C 74.8

Measured values drawn from PubChem BioAssay AID1963841 for this set.
